Tested on: SR leukemia
Value Type: GI50

>>> result("Cc1ccc2c(n1)C(=O)C(Cl)=C(Nc1cccc(C)c1C)C2=O")
"600 nM"
>>> result("Fc1ccc(-c2nc(C(Cl)Cl)nc3cc(-c4ccccc4)nn23)cc1")
"5230 nM"
>>> result("Cc1ccc(C(=O)Nc2ccc(CNCCN3CCOCC3)c(C(F)(F)F)c2)cc1C#Cc1cnc2cccnn12")
"1400 nM"
>>> result("CC(C)Sc1nc(Nc2ccc(S(N)(=O)=O)cc2)c(C#N)c(-c2ccc(F)cc2)n1")
"3730 nM"

====

Test system: SF-268 CNS
Outcome codes: active, inactive

>>> class_assignment("CC(=O)OC[C@H]1OC(O)C=C[C@@H]1OC(C)=O (stereo partly specified)")
"inactive"
>>> class_assignment("CC(C)Sc1nc(Nc2ccc(S(N)(=O)=O)cc2)c(C#N)c(-c2ccc(F)cc2)n1")
"inactive"
>>> class_assignment("CS(=O)(=O)Nc1cc(-c2ccc3ncc(C#N)c(Nc4cccc(Cl)c4F)c3c2)cnc1Cl")
"active"
>>> class_assignment("Fc1ccc(-c2nc(C(Cl)Cl)nc3cc(-c4ccccc4)nn23)cc1")
"inactive"
>>> class_assignment("Cc1ccc(C(=O)Nc2ccc(CNCCN3CCOCC3)c(C(F)(F)F)c2)cc1C#Cc1cnc2cccnn12")
"inactive"
>>> class_assignment("C#CCN(C)CCCOc1ccc(NC(=O)CCCCCCC(=O)NO)cc1Cl")
"inactive"

====

The following compounds are listed with their measured GI50 values.
Test system: TK-10 renal
Value Type: GI50

>>> result("Cc1ccc2c(n1)C(=O)C(Cl)=C(Nc1cccc(C)c1C)C2=O")
"2470 nM"
>>> result("Fc1ccc(-c2nc(C(Cl)Cl)nc3cc(-c4ccccc4)nn23)cc1")
"> 100000 nM"
>>> result("CC(C)Sc1nc(Nc2ccc(S(N)(=O)=O)cc2)c(C#N)c(-c2ccc(F)cc2)n1")
"3080 nM"
>>> result("C#CCN(C)CCCOc1ccc(NC(=O)CCCCCCC(=O)NO)cc1Cl")
"1410 nM"

====

Test system: 786-0 renal
Outcomes: 1 (active), -1 (inactive)

>>> class_assignment("C#CCN(C)CCCOc1ccc(NC(=O)CCCCCCC(=O)NO)cc1Cl")
-1
>>> class_assignment("Cc1ccc2c(n1)C(=O)C(Cl)=C(Nc1cccc(C)c1C)C2=O")
-1
>>> class_assignment("CC(=O)OC[C@H]1OC(O)C=C[C@@H]1OC(C)=O (some centres undefined)")
-1
>>> class_assignment("CS(=O)(=O)Nc1cc(-c2ccc3ncc(C#N)c(Nc4cccc(Cl)c4F)c3c2)cnc1Cl")
1

====

System: ACHN renal
Test: NCI tumour cell line growth inhibition, 48 h
TGI listing for selected molecules.
Value Type: TGI

>>> result("CS(=O)(=O)Nc1cc(-c2ccc3ncc(C#N)c(Nc4cccc(Cl)c4F)c3c2)cnc1Cl")
"21.2 µM"
>>> result("Cc1ccc(C(=O)Nc2ccc(CNCCN3CCOCC3)c(C(F)(F)F)c2)cc1C#Cc1cnc2cccnn12")
"9.55 µM"
>>> result("Cc1ccc2c(n1)C(=O)C(Cl)=C(Nc1cccc(C)c1C)C2=O")
"3.19 µM"
>>> result("C#CCN(C)CCCOc1ccc(NC(=O)CCCCCCC(=O)NO)cc1Cl")
"12.7 µM"

====

System: HT29 colon
Experiment: NCI tumour cell line growth inhibition, 48 h; in the data active = GI50 below about 0.43 µM; inactive = the rest
Possible outcomes: active, inactive

>>> class_assignment("Cc1ccc2c(n1)C(=O)C(Cl)=C(Nc1cccc(C)c1C)C2=O")
"inactive"
>>> class_assignment("Fc1ccc(-c2nc(C(Cl)Cl)nc3cc(-c4ccccc4)nn23)cc1")
"inactive"
>>> class_assignment("CS(=O)(=O)Nc1cc(-c2ccc3ncc(C#N)c(Nc4cccc(Cl)c4F)c3c2)cnc1Cl")
"active"
>>> class_assignment("C#CCN(C)CCCOc1ccc(NC(=O)CCCCCCC(=O)NO)cc1Cl")
"inactive"
